Listing of recorded protein stability index by entry.
Test: protein stability index of a GFP-peptide fusion (GPS, HEK-293T) (PSI 1-6); higher = more stable;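 note: 24-mer peptide tiles fused after GFP, lentivirally expressed, FACS-sorted into six equal bins by GFP/DsRed ratio, decoded by Illumina sequencing, PSI is the read-weighted mean bin number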
Settings: treatment: DMSO; c terminus: a fixed tail appended
Could you respond with only the numeric value?

These recorded examples may help you get a feel for the data.
>  <Sequence string>
ARSAASYMLFDPKDSVMQQNLVYY [P3H4]

>  <protein stability index>
2.28

$$$$
>  <Sequence string>
LRVRELQRKVDGIQKAYDELRLQS [CCDC89]

>  <protein stability index>
3.16

$$$$
>  <Sequence string>
KLTREVLSLFVQKLGNLMSLDISG [ZER1]

>  <protein stability index>
2.86

$$$$
>  <Sequence string>
NLPKFCHECGTKYPVEWAKFCCEC [ZC2HC1A]

>  <protein stability index>
5.28

$$$$
>  <Sequence string>
QEFSDVERAIETLIKNFHQYSVEG [S100A14]

>  <protein stability index>
2.33

$$$$

Sure, the documented protein stability index for LLDKAGVPPGVVNIVFGTGPRVGE [ALDH8A1] is 2.53

Sure, the documented protein stability index for FISVFSNLLESKADGIEVSYNACG [ZER1] is 2.3

Sure, the documented protein stability index for FRVAKKRAPKVLGTTLVVGLLAGV [GDAP1] is 2.47

Sure, the documented protein stability index for QDELRNRSVKVICLGSLASKLSRK [FAN1] is 2.96

Sure, the documented protein stability index for DGKLLWEQELYNNFVYNSPRGYFH [WASL] is 2.07

Sure, the documented protein stability index for PPPARGRGAPPPPPSRAPTAAPPP [WASL] is 5.26

Sure, the documented protein stability index for DFTTAAEDQPINLCDKLPPATALG [NOL4L] is 4.83

Sure, the documented protein stability index for TDGSVLAAGTHDGSVYFWATPRQV [WSB1] is 2.9
